Assign Inhibition of ligand binding, Dopamine D2L to each entry below.
Molecular target: human dopamine D2L receptor (Homo sapiens)
Sequence (P14416 whole entry): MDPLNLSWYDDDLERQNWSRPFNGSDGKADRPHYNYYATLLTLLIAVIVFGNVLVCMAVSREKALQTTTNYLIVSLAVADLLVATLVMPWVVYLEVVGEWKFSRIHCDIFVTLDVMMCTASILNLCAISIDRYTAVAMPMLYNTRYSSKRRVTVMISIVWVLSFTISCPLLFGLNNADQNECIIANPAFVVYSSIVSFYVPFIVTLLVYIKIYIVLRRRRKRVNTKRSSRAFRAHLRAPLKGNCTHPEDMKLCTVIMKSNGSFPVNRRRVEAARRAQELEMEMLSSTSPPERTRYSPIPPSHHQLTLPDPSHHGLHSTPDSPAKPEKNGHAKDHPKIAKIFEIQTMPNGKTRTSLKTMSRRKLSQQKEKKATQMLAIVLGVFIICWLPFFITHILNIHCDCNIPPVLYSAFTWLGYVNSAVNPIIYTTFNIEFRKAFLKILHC
Experiment: Dopamine D2L radioligand binding ([3H]Spiperone)
Settings: percent inhibition of specific binding; compound at 1 μM; 1 µM
Numbers only, in %.

Go through the items and report each one's Inhibition of ligand binding, Dopamine D2L.
1. C/C(=C\n1c2c(c3cc(Cl)ccc31)CN(C)CC2)c1ccc(Cl)cc1Cl
2. C/C(=C\n1c2c(c3ccccc31)CN(C)CC2)c1ccc(F)cc1
3. C/C(=C\n1c2c(c3cc(Cl)ccc31)CN(C)CC2)c1ccc(F)cc1F
4. CC(=Cn1c2c(c3cc(Cl)ccc31)CN(C)CC2)c1ccc(F)cc1F (stereo in doubt)
5. CN1CCc2c(c3cc(Cl)ccc3n2CC(O)(c2ccc(F)cc2)C2CC2)C1 (centres unmarked)

1. 52
2. 99
3. 98
4. 72
5. 45

###

Biological target: UniProt:P14416
Experiment: Dopamine D2L radioligand binding ([3H]Spiperone)
Settings: compound at 1 μM; […] [3H]Spiperone; read-out: Inhibition of ligand binding, Dopamine D2L (percent inhibition of specific binding)
Assign inhibition at 1 µM to each entry below.
Give bare numbers, in %.

Compound: Cc1ccc2c(c1)c1c(n2C#Cc2ccc(C3CC3)nc2)CCN(C)C1
Target of assay: UniProt:P14416
inhibition at 1 µM (%): 25

Compound: C/C(=C\n1c2c(c3cc(Cl)ccc31)CN(CCC(C)(C)O)CC2)c1ccc(F)cc1
Target of assay: UniProt:P14416
inhibition at 1 µM (%): 100

Compound: CNC(=O)c1ccc(/C(C)=C/n2c3c(c4cc(C)ccc42)CN(C)CC3)cc1
Target of assay: UniProt:P14416
inhibition at 1 µM (%): 71

Let us examine a further case.
Give UniProt:P14416 inhibition at 1 µM for Cc1ccc2c(c1)c1c(n2C(C)C(O)c2ccccc2)CCN(C)C1 (stereo not shown)
12

###

Biological target: human dopamine D2L receptor (Homo sapiens)
Experiment: Dopamine D2L radioligand binding ([3H]Spiperone)
Conditions: percent inhibition of specific binding; compound at 1 μM; read-out: Inhibition of ligand binding, Dopamine D2L
Assign inhibition at 1 µM to each entry below.
Answers are plain numbers, in %.

Some solved cases for reference:
Compound: Cc1ccc2c(c1)c1c(n2CC(C)(O)c2cnccn2)CCN(C)C1 (stereo not shown)
Endpoint unit: %
inhibition at 1 µM: 6
--
Compound: C/C(=C\n1c2c(c3cc(F)ccc31)CN(C)CC2)c1ccc(C)nc1
Endpoint unit: %
inhibition at 1 µM: 25
--
Compound: Cc1ccc2c(c1)c1c(n2CC(O)(c2ccccc2)c2ccc(F)cc2)CCN(C)C1 (stereo not shown)
Endpoint unit: %
inhibition at 1 µM: 6

Let us examine a further case.
Need inhibition at 1 µM of "C/C(=C\n1c2c(c3cc(C)ccc31)CN(CCCO)CC2)c1ccncc1" , thanks.
92

###

Target: human recombinant serotonin (5-Hydroxytryptamine) 5-HT6 receptor (Homo sapiens, UniProt P50406)
Construct: expressed in transfected cells; host or cells: human HeLa cells
Sequence (P50406 whole entry): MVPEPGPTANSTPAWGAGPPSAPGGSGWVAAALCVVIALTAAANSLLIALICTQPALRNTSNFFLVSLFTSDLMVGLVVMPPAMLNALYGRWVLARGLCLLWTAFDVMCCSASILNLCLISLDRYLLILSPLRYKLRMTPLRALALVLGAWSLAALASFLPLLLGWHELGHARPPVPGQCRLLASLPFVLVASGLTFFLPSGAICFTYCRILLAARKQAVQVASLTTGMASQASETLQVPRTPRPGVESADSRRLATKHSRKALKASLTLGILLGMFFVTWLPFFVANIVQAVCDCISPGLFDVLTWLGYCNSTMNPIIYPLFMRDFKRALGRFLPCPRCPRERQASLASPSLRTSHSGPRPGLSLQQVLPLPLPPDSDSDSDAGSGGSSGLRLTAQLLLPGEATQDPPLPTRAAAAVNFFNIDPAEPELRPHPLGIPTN
Test: Serotonin 5-HT6 radioligand binding ([3H]LSD)
Conditions: compound at 1 μM; read-out: Inhibition of ligand binding, Serotonin 5-HT6 (percent inhibition of specific binding)
Assign inhibition at 1 µM to each entry below.
Please provide the amount together with its unit, number first.

Some solved cases for reference:
Compound: C/C(=C\n1c2c(c3cc(Cl)ccc31)CN(CCC(C)(C)O)CC2)c1ccncc1 [compound 404]
inhibition at 1 µM: 95%
//
Compound: C/C(=C\n1c2c(c3ccc(C(F)(F)F)cc31)CN(C)CC2)c1ccc(F)cc1 [Compound 229]
inhibition at 1 µM: 107%
//
Compound: C/C(=C/n1c2c(c3cc(Cl)ccc31)CN(C)CC2)c1cc(F)c(F)cc1Cl [Compound 240]
inhibition at 1 µM: 104%
//
Compound: C/C(=C\n1c2c(c3cc(C)ccc31)CN(C)CC2)c1ccc(C)nc1 [compound 85]
inhibition at 1 µM: 68%
//
Compound: C/C(=C\n1c2c(c3cc(Cl)ccc31)CN(C)CC2)c1cc(Cl)cc(Cl)c1 [Compound 215]
inhibition at 1 µM: 97%
//
Compound: CN1CCc2c(c3cc(Cl)ccc3n2/C=C(\c2ccc(F)cc2)C2CC2)C1 [Compound 203]
inhibition at 1 µM: 103%
//
Compound: C/C(=C\n1c2c(c3cc(Cl)ccc31)CN(C)CC2)c1ccc(F)cc1 [Compound 83]
inhibition at 1 µM: 102%
//
Compound: Cc1ccc(C#Cn2c3c(c4cc(Cl)ccc42)CN(C)CC3)cn1 [Compound No. 484]
inhibition at 1 µM: 34%
//
Compound: C=C(Cn1c2c(c3cc(OC)ccc31)CN(C)CC2)c1ccncc1 [Compound No. 356]
inhibition at 1 µM: 90%
//
Compound: C=C(Cn1c2c(c3cc(Cl)ccc31)CN(C)CC2)c1ccc(OC)c(F)c1 [Compound 140]
inhibition at 1 µM: 75%

Go through the items and report each one's inhibition at 1 µM.
1. COc1ccc(C(C)(O)Cn2c3c(c4cc(Cl)ccc42)CN(C)CC3)cc1 (centres unmarked) [Compound 57]
2. C/C(=C\n1c2c(c3c(Cl)c(Cl)ccc31)CN(C)CC2)c1ccncc1 [Compound 245]
3. Cc1ccc2c(c1)c1c(n2C#Cc2ccc(F)cc2)CCN(C)C1 [Compound No. 478]
4. C=C(Cn1c2c(c3cc(C)ccc31)CN(C)CC2)c1ccc(O)cc1 [Compound No. 355]
5. C/C(=C\n1c2c(c3cccc(F)c31)CN(C)CC2)c1ccncc1 [Compound 223]
6. C/C(=C\n1c2c(c3cc(Cl)ccc31)CN(C)CC2)c1cc(F)c(F)cc1Cl [Compound 241]
7. C/C=C/C(=C\n1c2c(c3cc(Cl)ccc31)CN(C)CC2)c1ccc(F)cc1 [Compound 204]

68%
103%
97%
101%
103%
101%
102%
